target: human CSNK1A1 (Homo sapiens (Human), UniProt P48729); experiment: CSNK1A1 assay (ADP-Glo, 1 μM ATP); format: biochemical; conditions: median, read-out: CSNK1A1 Low ATP IC50 [mol/l] (median)
Sequence (P48729 whole entry): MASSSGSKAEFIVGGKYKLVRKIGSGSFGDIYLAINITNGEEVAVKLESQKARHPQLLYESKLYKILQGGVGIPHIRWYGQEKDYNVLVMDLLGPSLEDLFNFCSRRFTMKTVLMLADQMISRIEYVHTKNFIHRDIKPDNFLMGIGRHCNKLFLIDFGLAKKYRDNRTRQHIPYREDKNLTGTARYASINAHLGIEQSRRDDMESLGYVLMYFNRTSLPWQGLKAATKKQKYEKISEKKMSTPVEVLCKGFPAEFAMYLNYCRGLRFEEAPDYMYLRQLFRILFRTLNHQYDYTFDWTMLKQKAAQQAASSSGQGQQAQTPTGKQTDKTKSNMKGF
pIC50: −log10 of the molar value.
Measured pIC50, listed per entry for reference.

Compound: O=C(Cc1cc2ccccn2n1)Nc1cc(-c2[nH]c3cccnc3c2-c2ccccn2)ccn1
pIC50: 8.97
//
Compound: O=C(Cc1cnc2ccccc2n1)Nc1cc(-c2[nH]c3cccnc3c2-c2ccccn2)ccn1
pIC50: 8.96
//
Compound: Cn1nc(CC(=O)Nc2cc(-c3[nH]c4cccnc4c3-c3ccccn3)ccn2)cc1C(F)(F)F
pIC50: 8.79
//
Compound: Cn1cnc(CC(=O)Nc2cc(-c3[nH]c4cccnc4c3-c3ccccn3)ccn2)c1
pIC50: 8.39
//
Compound: Cc1nn(C)c(C)c1CC(=O)Nc1cc(-c2[nH]c3cccnc3c2-c2ccccn2)ccn1
pIC50: 8.53
//
Compound: Cc1nc(CC(=O)Nc2cc(-c3[nH]c4cccnc4c3-c3ccccn3)ccn2)co1
pIC50: 8.55
//
Compound: Cn1cc(C(CC(F)F)C(=O)Nc2cc(-c3[nH]c4cccnc4c3-c3ccccn3)ccn2)cn1 (stereo not drawn)
pIC50: 8.17
//
Compound: Cc1nn(C)cc1CC(=O)Nc1cc(-c2[nH]c3cccnc3c2-c2ccccn2)ccn1
pIC50: 8.58
//
Compound: Cc1cc(CC(=O)Nc2cc(-c3[nH]c4cccnc4c3-c3ccccn3)ccn2)no1
pIC50: 8.69
//
Compound: O=C(Cc1ccn(CC(F)(F)F)n1)Nc1cc(-c2[nH]c3cccnc3c2-c2ccccn2)ccn1
pIC50: 8.73
//
Compound: O=C(Nc1cc(-c2[nH]c3c(OCC(F)F)ncnc3c2-c2ccccn2)ccn1)[C@@H](CC(F)F)c1ccc(F)cc1 [Example C3, reference compound]
pIC50: 8.51
//
Compound: Cn1nc(CC(=O)Nc2cc(-c3[nH]c4cccnc4c3-c3ccccn3)ccn2)cc1C1CC1
pIC50: 8.66
//
Compound: Cc1cc(CC(=O)Nc2cc(-c3[nH]c4cccnc4c3-c3ccccn3)ccn2)on1
pIC50: 8.77
//
Compound: Cc1nc(C)c(CC(=O)Nc2cc(-c3[nH]c4cccnc4c3-c3ccccn3)ccn2)s1
pIC50: 8.84
//
Compound: Cc1ncc(CC(=O)Nc2cc(-c3[nH]c4cccnc4c3-c3ccccn3)ccn2)o1
pIC50: 8.71
//
Compound: CC(C)n1ccc(CC(=O)Nc2cc(-c3[nH]c4cccnc4c3-c3ccccn3)ccn2)n1
pIC50: 8.64
//
Compound: Cc1ocnc1CC(=O)Nc1cc(-c2[nH]c3cccnc3c2-c2ccccn2)ccn1
pIC50: 8.46
//
Compound: Cc1nocc1CC(=O)Nc1cc(-c2[nH]c3cccnc3c2-c2ccccn2)ccn1
pIC50: 8.58
//
Compound: Cc1cc(CC(=O)Nc2cc(-c3[nH]c4cccnc4c3-c3ccccn3)ccn2)n(C)n1
pIC50: 8.71
//
Compound: Cc1nc(CC(=O)Nc2cc(-c3[nH]c4cccnc4c3-c3ccccn3)ccn2)cs1
pIC50: 8.74
//
Compound: O=C(Cc1ccns1)Nc1cc(-c2[nH]c3cccnc3c2-c2ccccn2)ccn1
pIC50: 8.83
//
Compound: Cc1noc(C)c1CC(=O)Nc1cc(-c2[nH]c3cccnc3c2-c2ccccn2)ccn1
pIC50: 8.77
//
Compound: O=C(Nc1cc(-c2[nH]c3nccnc3c2-c2ccccn2)ccn1)[C@@H](CC(F)F)c1ccc(F)cc1 [Example C1, reference compound]
pIC50: 8.90
//
Compound: Cc1cc(CC(=O)Nc2cc(-c3[nH]c4cccnc4c3-c3ccccn3)ccn2)nn1C
pIC50: 8.56
//
Compound: O=C(Cc1cc(C2CC2)on1)Nc1cc(-c2[nH]c3cccnc3c2-c2ccccn2)ccn1
pIC50: 8.80
//
Compound: O=C(Nc1cc(-c2[nH]c3ccc(F)nc3c2-c2ccccn2)ccn1)[C@@H](CC(F)F)c1ccc(F)cc1 [Example C2, reference compound]
pIC50: 8.92
//
Compound: Cn1cc(CC(=O)Nc2cc(-c3[nH]c4cccnc4c3-c3ccccn3)ccn2)cn1
pIC50: 8.38
//
Compound: O=C(Cc1ccno1)Nc1cc(-c2[nH]c3cccnc3c2-c2ccccn2)ccn1
pIC50: 8.85
//
Compound: O=C(Cc1ccon1)Nc1cc(-c2[nH]c3cccnc3c2-c2ccccn2)ccn1
pIC50: 8.71
//
Compound: O=C(Cc1cnc2ccccn12)Nc1cc(-c2[nH]c3cccnc3c2-c2ccccn2)ccn1
pIC50: 8.23
